Target: GST-RIPK1 (recombinant GST-RIPK1 kinase domain (residues 1-327)) (Homo sapiens (Human), UniProt Q13546)
Sequence (Q13546 1-327): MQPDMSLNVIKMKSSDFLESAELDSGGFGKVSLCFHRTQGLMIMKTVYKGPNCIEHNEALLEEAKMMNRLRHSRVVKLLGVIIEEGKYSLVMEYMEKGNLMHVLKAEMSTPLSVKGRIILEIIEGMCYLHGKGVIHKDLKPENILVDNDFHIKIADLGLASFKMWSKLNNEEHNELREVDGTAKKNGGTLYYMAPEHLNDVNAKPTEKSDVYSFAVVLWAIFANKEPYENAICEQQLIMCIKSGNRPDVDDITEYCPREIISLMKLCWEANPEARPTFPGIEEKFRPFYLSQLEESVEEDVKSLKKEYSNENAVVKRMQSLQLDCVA
Assay: RIPK1-ADP-Glo Enzymatic Assay
Conditions: 25 nM GST-RIPK1, 300 μM ATP, 3 μM dephosphorylated-MBP, 30 min pre-incubation, 150 min reaction
Procedure: The enzymatic activity of RIPK1 is measured using an assay derived from ADP-Glo kit (TMPromega), which provides a luminescent-based ADP detection system. Specifically, the ADP generated by RIPK1 kinase is proportionally detected as luminescent signals in a homogenous fashion. In this context, the assessment of the inhibitory effect of small molecules (EC50) is measured by the effectiveness of the compounds to inhibit the ATP to ADP conversion by RIPK1. […]
Below, each entry is listed alongside its reported EC50.
Please answer using the number first and the unit second.

Example entries and their recorded answers appear below.
{"MOLECULE": "O=c1n(C23CC(F)(C2)C3)nc2n1[C@H](c1ccc(F)cc1F)CC2 [Compound 1-48]", "OBSERVED VALUE": "54.4 nM"}
{"MOLECULE": "O=c1n(C23CC(F)(C2)C3)nc2n1[C@H](c1cncc(F)c1)CC2 [Compound 1-10]", "OBSERVED VALUE": "272 nM"}
{"MOLECULE": "Cc1cncc([C@@H]2CCc3nn(C45CC(Cl)(C4)C5)c(=O)n32)n1 [Compound 1-68]", "OBSERVED VALUE": "59.5 nM"}
{"MOLECULE": "C[C@@H]1C[C@@H](c2cc(F)cc(F)c2)n2c1nn(C13CC(C#N)(C1)C3)c2=O [Compound 1-69]", "OBSERVED VALUE": "263 nM"}
{"MOLECULE": "O=c1n(C23CC(c4ccccc4)(C2)C3)nc2n1[C@H](c1cc(F)cc(F)c1)CC2 [Compound 1-12]", "OBSERVED VALUE": "49.1 nM"}
{"MOLECULE": "O=c1n(C23CC(F)(C2)C3)nc2n1[C@H](c1ccccc1)CC2F (single isomer, unassigned) [Compound 6-4]", "OBSERVED VALUE": "21.9 nM"}
{"MOLECULE": "Cc1cc(F)c([C@@H]2CCc3nn(C45CC(F)(C4)C5)c(=O)n32)c(F)c1 [Compound 1-74]", "OBSERVED VALUE": "20.9 nM"}
{"MOLECULE": "O=c1n(C23CC(F)(C2)C3)nc2n1[C@H](c1cc(F)cc(F)c1)CC2F (single isomer, unassigned) [Compound 6-1]", "OBSERVED VALUE": "116 nM"}

Entry under test: COC12CCC(n3nc4n(c3=O)[C@H](c3cc(F)cc(F)c3)CC4)(CC1)C2 [Compound 1-26] . Its EC50 was 377 nM

Entry under test: N#CC12CC(n3nc4n(c3=O)[C@H](c3ccccc3F)CC4F)(C1)C2 (single isomer, unassigned) [Compound 6-10] . Its EC50 was 18.1 nM

Entry under test: N#CC12CCC(n3nc4n(c3=O)[C@H](c3cc(F)cc(F)c3)CC4)(CC1)C2 [Compound 1-29] . Its EC50 was 68 nM
